Values were extracted from patent US20260028365A1.

- tested_system: Tyk2 (Homo sapiens (Human))
- experiment: pSTAT4 Cell Assay (MSD, NK92 cells)
- Format: cell-based
- settings: MSD
pIC50: −log10 of the molar value.
Listing: pIC50 of selected molecules

| molecule | pIC50 |
| --- | --- |
| CCc1cc(Nc2cc(NC(C)=O)ncc2-c2ccn(C)n2)nc(C(C)(F)F)n1 [Example 204] | ≥ 8.00 |
| CCOCCn1ccc(-c2cnc(NC(C)=O)cc2Nc2cc(C)nc(C(C)(F)F)n2)n1 [Example 229] | ≥ 8.00 |
| CCc1cc(COc2cnc(NC(C)=O)cc2Nc2cc(C)nc(C(C)(F)F)n2)on1 [Example 319] | 7.00 to 8.00 |
| CC(=O)Nc1cc(Nc2cc(C)nc(C(C)(F)F)n2)c(-c2ccnc(C)n2)cn1 [Example 174] | ≥ 8.00 |

###

List of IC50 values.
- tested_system: Tyk2 (Homo sapiens (Human), UniProt P29597)
- Sequence (P29597 whole entry): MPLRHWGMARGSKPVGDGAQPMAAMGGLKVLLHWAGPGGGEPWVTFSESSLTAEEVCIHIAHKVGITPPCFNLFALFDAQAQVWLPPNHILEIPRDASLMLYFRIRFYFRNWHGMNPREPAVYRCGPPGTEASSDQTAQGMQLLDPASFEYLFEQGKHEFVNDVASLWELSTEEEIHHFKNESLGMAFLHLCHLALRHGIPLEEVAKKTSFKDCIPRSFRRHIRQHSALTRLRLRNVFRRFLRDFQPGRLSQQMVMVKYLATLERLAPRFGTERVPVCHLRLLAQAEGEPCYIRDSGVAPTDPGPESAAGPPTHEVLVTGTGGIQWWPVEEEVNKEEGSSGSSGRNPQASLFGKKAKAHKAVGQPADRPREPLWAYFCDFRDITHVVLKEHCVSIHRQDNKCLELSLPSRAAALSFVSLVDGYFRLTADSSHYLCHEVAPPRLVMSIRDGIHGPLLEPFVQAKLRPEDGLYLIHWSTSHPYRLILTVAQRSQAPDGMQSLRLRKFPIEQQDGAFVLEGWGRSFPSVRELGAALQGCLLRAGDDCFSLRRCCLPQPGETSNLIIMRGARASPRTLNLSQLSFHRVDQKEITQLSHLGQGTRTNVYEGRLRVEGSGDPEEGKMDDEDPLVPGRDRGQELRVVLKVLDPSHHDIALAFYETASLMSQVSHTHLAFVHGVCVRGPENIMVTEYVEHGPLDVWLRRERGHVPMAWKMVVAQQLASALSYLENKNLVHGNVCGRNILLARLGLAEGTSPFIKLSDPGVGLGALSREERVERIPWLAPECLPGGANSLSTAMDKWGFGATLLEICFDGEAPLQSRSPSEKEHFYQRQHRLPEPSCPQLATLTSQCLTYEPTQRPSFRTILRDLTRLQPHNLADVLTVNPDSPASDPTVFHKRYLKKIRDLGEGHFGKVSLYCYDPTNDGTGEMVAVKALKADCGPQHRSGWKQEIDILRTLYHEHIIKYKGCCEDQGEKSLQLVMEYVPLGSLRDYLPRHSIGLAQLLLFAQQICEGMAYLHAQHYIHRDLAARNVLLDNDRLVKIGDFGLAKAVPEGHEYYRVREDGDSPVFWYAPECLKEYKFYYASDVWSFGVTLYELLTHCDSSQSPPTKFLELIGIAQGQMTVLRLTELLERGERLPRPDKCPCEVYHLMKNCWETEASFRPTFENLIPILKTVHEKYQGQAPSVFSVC
- experiment: pSTAT4 Cell Assay (MSD, NK92 cells)
- Type: cell-based
- settings: MSD

| molecule | IC50 |
| --- | --- |
| CC(=O)Nc1cc(Nc2cc(C)nc(C(C)(F)F)n2)c(OC[C@@H]2CCCO2)cn1 (single isomer, unassigned) | 10 to 100 nM |
| CCOc1cnc(NC(C)=O)cc1Nc1cc(C(C)(F)F)ccn1 | ≥ 1000 nM |
| CC(=O)Nc1cc(Nc2cc(C)nc(C(C)(C)F)n2)c(-c2ccn3nccc3n2)cn1 | ≤ 10 nM |
| CCc1cnc(NC(C)=O)cc1Nc1cc(C)nc(C(C)(F)F)n1 | ≥ 1000 nM |
| COCc1ncc(-c2cnc(NC(C)=O)cc2Nc2cc(C)nc(C(C)(F)F)n2)s1 | ≤ 10 nM |
| CC(=O)Nc1cc(Nc2cc(C)nc(C(C)(F)F)n2)c(-c2nc(C)cc(C#N)n2)cn1 | 100 to 1000 nM |
| CC(=O)Nc1cc(Nc2cc(C)nc(C(C)(F)F)n2)c(OCC(=O)N(C)C)cn1 | 100 to 1000 nM |
| CC(=O)Nc1cc(Nc2cc(C)nc(C(C)(C)F)n2)c(-c2cc(C)ncn2)cn1 | 10 to 100 nM |

###

- tested_system: UniProt:P29597
- experiment: pSTAT4 Cell Assay (MSD, NK92 cells)
- Format: cell-based
- settings: MSD
pIC50: −log10 of the molar value.

| smiles_structure | pIC50 |
| --- | --- |
| CC(=O)Nc1cc(Nc2cc(C)nc(C(C)(F)F)n2)c(-c2ccnc(N(C)C)n2)cn1 | ≥ 8.00 |
| CCOc1cnc(NC(C)=O)cc1Nc1cc(O[C@H]2C[C@H](OC)C2)nc(C)n1 | 6.00 to 7.00 |
| CC(=O)Nc1cc(Nc2cc(C)nc(C(C)(F)F)n2)c(OCCN2CCN(C)CC2)cn1 | 7.00 to 8.00 |
| CC(=O)Nc1cc(Nc2cc(C)nc(C(C)(F)F)n2)c(OCc2ncccn2)cn1 | 6.00 to 7.00 |
| CC(=O)Nc1cc(Nc2cc(C)nc(C(C)(F)F)n2)c(OCC2CCC2)cn1 | 7.00 to 8.00 |
| CC(=O)Nc1cc(Nc2cc(C)nc(C(C)(F)F)n2)c(-c2cc(N(C)C)cnn2)cn1 | ≤ 6.00 |
| COC(C)(C)COc1cnc(NC(C)=O)cc1Nc1cc(C)nc(C(C)(F)F)n1 | 7.00 to 8.00 |
| CC(=O)Nc1cc(Nc2cc(C)nc(C(C)(C)F)n2)c(-c2cn3cnnc3cn2)cn1 | 6.00 to 7.00 |

###

Consider the following compounds and their measured IC50 readings.
- tested_system: UniProt:O60674
- Sequence (O60674 whole entry): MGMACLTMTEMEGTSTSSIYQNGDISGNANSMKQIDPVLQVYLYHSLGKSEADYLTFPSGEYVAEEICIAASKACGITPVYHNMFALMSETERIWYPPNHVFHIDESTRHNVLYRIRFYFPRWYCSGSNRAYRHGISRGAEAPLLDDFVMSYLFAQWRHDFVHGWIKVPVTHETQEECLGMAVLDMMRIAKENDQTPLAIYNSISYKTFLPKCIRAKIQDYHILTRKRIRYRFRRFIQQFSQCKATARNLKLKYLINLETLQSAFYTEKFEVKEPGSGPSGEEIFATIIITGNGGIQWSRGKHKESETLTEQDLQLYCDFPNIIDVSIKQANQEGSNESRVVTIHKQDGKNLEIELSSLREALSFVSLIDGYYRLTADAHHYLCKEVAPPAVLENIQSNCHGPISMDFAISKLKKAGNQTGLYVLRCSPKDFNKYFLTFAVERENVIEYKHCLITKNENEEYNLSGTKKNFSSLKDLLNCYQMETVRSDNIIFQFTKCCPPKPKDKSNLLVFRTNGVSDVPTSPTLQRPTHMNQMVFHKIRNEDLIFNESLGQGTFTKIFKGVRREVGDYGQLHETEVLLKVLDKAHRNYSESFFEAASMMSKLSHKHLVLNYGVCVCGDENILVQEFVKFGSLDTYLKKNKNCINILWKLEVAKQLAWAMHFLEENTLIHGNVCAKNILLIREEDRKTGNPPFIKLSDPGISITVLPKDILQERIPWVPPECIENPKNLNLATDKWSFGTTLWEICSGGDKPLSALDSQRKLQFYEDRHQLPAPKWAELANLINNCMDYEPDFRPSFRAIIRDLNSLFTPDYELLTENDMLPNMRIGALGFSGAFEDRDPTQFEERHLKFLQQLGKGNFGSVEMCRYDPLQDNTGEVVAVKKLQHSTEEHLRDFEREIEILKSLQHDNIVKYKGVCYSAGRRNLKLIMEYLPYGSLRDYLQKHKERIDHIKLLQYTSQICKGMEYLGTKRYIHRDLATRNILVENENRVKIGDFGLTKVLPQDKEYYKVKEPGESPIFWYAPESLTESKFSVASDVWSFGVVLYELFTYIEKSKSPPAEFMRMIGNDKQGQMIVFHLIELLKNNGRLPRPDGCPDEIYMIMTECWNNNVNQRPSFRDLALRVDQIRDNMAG
- experiment: pSTAT5 Cell Assay (MSD, TF1 cells)
- Format: cell-based
- settings: IL-3 stimulated

| compound | IC50 |
| --- | --- |
| CCc1cc(Nc2cc(NC(C)=O)ncc2-c2ncc(C3COCCO3)cn2)nc(C(C)(F)F)n1 (centres unmarked) | ≥ 1000 nM |
| COCc1cc(-c2cnc(NC(C)=O)cc2Nc2cc(C)nc(C(C)(F)F)n2)nn1C | ≥ 1000 nM |
| COc1ccc(-c2cnc(NC(C)=O)cc2Nc2ccnc(C(C)(C)F)n2)nn1 | ≥ 1000 nM |
| CC(=O)Nc1cc(Nc2ccnc(C(C)(F)F)n2)c(-c2ncc(OC(F)F)cn2)cn1 | ≥ 1000 nM |
| CC(=O)Nc1cc(Nc2ccnc(C(C)(F)F)n2)c(-c2cnc(C(C)(C)O)cn2)cn1 | ≥ 1000 nM |
| COCc1ccc(-c2cnc(NC(C)=O)cc2Nc2ccnc(C(C)(F)F)n2)nc1 | ≥ 1000 nM |
| CCc1cc(Nc2cc(NC(N)=O)ncc2-c2cnccn2)nc(C(C)(F)F)n1 | ≥ 1000 nM |
| CCc1cc(Nc2cc(NC(C)=O)ncc2-c2ccncn2)nc(C(C)(F)F)n1 | ≥ 1000 nM |

###

Reported IC50 by item:
- tested_system: JH2 domain of human Tyk2 (Homo sapiens (Human))
- Sequence (P29597 575-876): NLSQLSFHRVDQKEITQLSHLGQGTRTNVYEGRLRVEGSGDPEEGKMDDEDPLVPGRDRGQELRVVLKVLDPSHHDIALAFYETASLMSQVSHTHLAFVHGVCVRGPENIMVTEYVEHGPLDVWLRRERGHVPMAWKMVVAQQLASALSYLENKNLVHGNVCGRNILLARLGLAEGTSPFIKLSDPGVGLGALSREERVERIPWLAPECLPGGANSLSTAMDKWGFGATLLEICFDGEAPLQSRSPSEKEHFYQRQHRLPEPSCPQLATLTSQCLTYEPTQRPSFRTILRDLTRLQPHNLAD
- experiment: JH2 Biochemical Assay (TR-FRET probe displacement)
- Type: binding
- settings: TR-FRET probe displacement, JH2 domain of human Tyk2

| smiles_structure | IC50 |
| --- | --- |
| CC(=O)Nc1cc(Nc2cc(C)nc(C(C)(F)F)n2)c(-c2cc(C(C)(C)O)n(C)n2)cn1 | ≤ 10 nM |
| CC(=O)Nc1cc(Nc2ccnc(C(C)(F)F)n2)c(-c2cc(C)ncn2)cn1 | ≤ 10 nM |
| CC(=O)Nc1cc(Nc2cc(C)nc(C(C)(F)F)n2)c(-c2ncc(F)cn2)cn1 | ≤ 10 nM |
| CC(=O)Nc1cc(Nc2cc(C)nc(C(C)(F)F)n2)c(OCc2cnn(C3CCC3)c2)cn1 | ≤ 10 nM |
| CC(=O)Nc1cc(Nc2cc(C)nc(C(C)(F)F)n2)c(-c2csc(N(C)C)n2)cn1 | ≤ 10 nM |
| CCOc1cnc(NC(C)=O)cc1Nc1cc(O[C@H]2C[C@H](OC)C2)nc(C(C)(F)F)n1 | ≤ 10 nM |
| CCOc1cnc(NC(C)=O)cc1Nc1cc(OC)nc(C(C)(F)F)n1 | ≤ 10 nM |
| CC(=O)Nc1cc(Nc2cc(C(C)C)nc(C(C)(F)F)n2)c(-c2ncc(F)cn2)cn1 | ≤ 10 nM |
| COc1cc(COc2cnc(NC(C)=O)cc2Nc2cc(C)nc(C(C)(F)F)n2)ncn1 | ≤ 10 nM |
| CC(=O)Nc1cc(Nc2cc(C)nc(C(C)(F)F)n2)c(C(C)C)cn1 | 10 to 100 nM |
| CCOc1cnc(NC(C)=O)cc1Nc1cccc(C(C)(F)F)n1 | ≤ 10 nM |
| CCOc1cnc(NC(C)=O)cc1Nc1cc(C(C)(F)F)ncn1 | 100 to 1000 nM |
| CC(=O)Nc1cc(Nc2cc(C)nc(C(C)(F)F)n2)c(OCc2ncsc2C)cn1 | 10 to 100 nM |
| CCOc1cnc(NC(C)=O)cc1Nc1cc(C(C)C)nc(C(C)(F)F)n1 | ≤ 10 nM |
| CCOc1cnc(NC(=O)CC)cc1Nc1cc(C)nc(C(C)(F)F)n1 | ≤ 10 nM |
| CC(=O)Nc1cc(Nc2cccc(C(C)(F)F)n2)c(OCCO)cn1 | ≤ 10 nM |
| CCn1cc(-c2cc(Nc3cc(NC(C)=O)ncc3OC)nc(C(C)(F)F)n2)cn1 | 10 to 100 nM |
| CC(=O)Nc1cc(Nc2ccnc(C(C)(F)F)n2)c(-c2ncc(F)cn2)cn1 | ≤ 10 nM |
| CCc1cc(Nc2cc(NC(C)=O)ncc2-c2ccc(CN3CCOCC3)cn2)nc(C(C)(F)F)n1 | ≤ 10 nM |
| CCc1cc(Nc2cc(NC(C)=O)ncc2-c2nc(C)no2)nc(C(C)(F)F)n1 | ≤ 10 nM |
| CC(=O)Nc1cc(Nc2cc(C)nc(C(C)(F)F)n2)c(OCC2COC2)cn1 | ≤ 10 nM |
| CCOc1cnc(NC(C)=O)cc1Nc1cc(-c2cnn(CC(=O)O)c2)nc(C(C)(F)F)n1 | ≤ 10 nM |
| CCOc1cnc(NC(C)=O)cc1N(C)c1cc(C)nc(C(C)(F)F)n1 | ≥ 1000 nM |
| COCCOc1cnc(NC(C)=O)cc1Nc1cc(OC(C)C)nc(C(C)(F)F)n1 | ≤ 10 nM |
| CCOc1cnc(NC(C)=O)cc1Nc1nccc(C(C)(F)F)n1 | ≤ 10 nM |

###

- tested_system: Tyk2 (Homo sapiens (Human), UniProt P29597)
- experiment: pSTAT4 Cell Assay (MSD, NK92 cells)
- Format: cell-based
- settings: MSD
A collection of molecules and their measured IC50
reported_endpoint: IC50

| molecule | reported_endpoint | result |
| --- | --- | --- |
| COc1cnc(NC(C)=O)cc1Nc1cc(OC2CC(F)(F)C2)nc(C(C)(F)F)n1 [Example 460] | IC50 | 10 to 100 nM |
| COCC(C)Oc1cnc(NC(C)=O)cc1Nc1cc(C)nc(C(C)(F)F)n1 (centres unmarked) [Example 59] | IC50 | 100 to 1000 nM |
| CC(=O)Nc1cc(Nc2cc(C)nc(C(C)(F)F)n2)c(OCC2CC(F)(F)C2)cn1 [Example 465] | IC50 | 10 to 100 nM |
| CC(=O)Nc1cc(Nc2cc(C)nc(C3CCOC3)n2)c(-c2cc3n(n2)CCN(C)C3)cn1 (centres unmarked) [Example 547] | IC50 | ≤ 10 nM |
| COCCOc1cnc(NC(C)=O)cc1Nc1nc(C)cc(C(F)CF)n1 (centres unmarked) [Example 80] | IC50 | 100 to 1000 nM |
| CC(=O)Nc1cc(Nc2cc(C)nc(C(C)(F)F)n2)c(OCc2ccncc2)cn1 [Example 473] | IC50 | 10 to 100 nM |
| CCc1cc(Nc2cc(NC(C)=O)ncc2-c2nc(C)no2)nc(C(C)(F)F)n1 [Example 281] | IC50 | 10 to 100 nM |
| CCc1cc(Nc2cc(NC(=O)OC)ncc2OCCN(C)C)nc(C(C)(F)F)n1 [Example 92] | IC50 | 10 to 100 nM |
| CC(=O)Nc1cc(Nc2cc(C)nc(C(C)(F)F)n2)c(OCc2ncc(C)o2)cn1 [Example 341] | IC50 | 10 to 100 nM |
| CC(=O)Nc1cc(Nc2cc(C)nc(C(C)(F)F)n2)c(OCc2nc(C)cs2)cn1 [Example 112] | IC50 | 10 to 100 nM |
| CC(=O)Nc1cc(Nc2cc(C)nc(C(C)(F)F)n2)c(OCC2COCCO2)cn1 (centres unmarked) [Example 135] | IC50 | ≤ 10 nM |
| [2H]C([2H])([2H])C([2H])([2H])Oc1cnc(NC(C)=O)cc1Nc1cc(-c2cnn(C(C)C)c2)nc(C(C)(F)F)n1 [Example 361] | IC50 | ≤ 10 nM |
| CC(=O)Nc1cc(Nc2cc(C)nc(C(C)(F)F)n2)c(-c2ccc(F)cn2)cn1 [Example 594] | IC50 | ≤ 10 nM |
| COc1cnn(-c2cnc(NC(C)=O)cc2Nc2ccnc(C(C)(F)F)n2)c1 [Example 730] | IC50 | 100 to 1000 nM |
| COc1nc(-c2cnc(NC(C)=O)cc2Nc2cc(C)nc(C(C)(F)F)n2)cs1 [Example 617] | IC50 | ≤ 10 nM |
| CC(=O)Nc1cc(Nc2cc(C(C)C)nc(C(C)(F)F)n2)c(-c2ncc(F)cn2)cn1 [Example 184] | IC50 | 10 to 100 nM |
| COc1cnc(NC(C)=O)cc1Nc1cc(-c2ccc(C#N)cc2)nc(C(C)(F)F)n1 [Example 393] | IC50 | 10 to 100 nM |
